Origin of measurements: patent US20240084003A1

- assayed-target: T1, murine CD22 protein (ACROBiosystems, SI2-M52Ha) (murine, UniProt P35329 22-708)
- T1 construct: extracellular domain; also called murine CD22-ECD; murine CD22-ECD-His
- T1 sequence (looked up): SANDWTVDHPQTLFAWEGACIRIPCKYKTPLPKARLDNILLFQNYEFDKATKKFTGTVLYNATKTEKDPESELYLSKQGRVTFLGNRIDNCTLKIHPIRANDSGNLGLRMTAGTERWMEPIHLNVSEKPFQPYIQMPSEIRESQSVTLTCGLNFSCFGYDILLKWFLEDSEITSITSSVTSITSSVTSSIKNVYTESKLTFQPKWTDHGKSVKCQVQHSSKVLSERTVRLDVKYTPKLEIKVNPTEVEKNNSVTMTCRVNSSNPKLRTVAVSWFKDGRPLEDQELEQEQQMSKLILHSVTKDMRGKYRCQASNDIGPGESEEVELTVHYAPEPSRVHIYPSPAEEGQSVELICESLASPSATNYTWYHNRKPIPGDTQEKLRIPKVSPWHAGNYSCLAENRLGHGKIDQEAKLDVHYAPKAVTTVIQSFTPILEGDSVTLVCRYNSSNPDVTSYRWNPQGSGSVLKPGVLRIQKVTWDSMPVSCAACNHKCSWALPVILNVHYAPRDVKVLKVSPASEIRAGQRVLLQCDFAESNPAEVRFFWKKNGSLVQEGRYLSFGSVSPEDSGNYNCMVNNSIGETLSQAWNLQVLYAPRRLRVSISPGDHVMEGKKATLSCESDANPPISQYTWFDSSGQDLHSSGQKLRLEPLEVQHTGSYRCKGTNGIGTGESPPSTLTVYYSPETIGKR
- protocol: ELISA, coated murine CD22, 0.1 nM Ab
// reported OD450 for each item listed

# input Value lookup for OD450; key = F1.267.9 human-murine chimeric antibody (antibody, human IgG1, kappa, V domains shown, Chimeric, human IgG1 / kappa; VL tied by name) VH: EVQLQQSGPVLVKPGASVKMSCKASGYTFTDFYMNWAKQSHGKSLEWVGVINPYNGGINYNQKFKGKATLTVDKSSSTAYMEFNSLTSEDSAVYYCARRMEYHAMDYWGQGTSVTVSS VL: DIVLTQSPASLAVSLGQRATISCRASESVDNYGFDFIHWYQQKPGQPPKLLIYRASNLESGIPARFSGSGSRPDFTLTINPVETDDVATYYCQQSIKDPWTFGGGTKLEIKR
# output 0.06 OD450

# input Look up OD450: F2.173.9 human-murine chimeric antibody (antibody, human IgG1, lambda, V domains shown, Chimeric, human IgG1 / lambda) VH: EVQLVESGGDLVKPGESLKLSCEASGFTFSNYAMSWVRQTPDRRLEWVATISSIGSFTYYSDSVKGRFTISRDNVKSTLHLQMNNLKSGDTAIYFCARLGVYFDSWGQGTTLTVSS VL: QLVLTQSSSASFSLGASAKLTCTLSSQHSTYTIEWYQQQPHKPPKFVMEIKKDGSHYTGDGIPDRFSGSSSGADRYLSISNIQPEDETIYICGVSDMIKDQFVYVFGGGTKVTVLG
# output 0.05 OD450
